# growth listing for each entry below
- System: MOLT-4 leukemia
- procedure.details: NCI-60 one-dose screen, 48 h (100 = growth as untreated, 0 = no growth, -100 = all killed)
- details: 10 µM unless noted
- Description: Growth inhibition of the MOLT-4 human tumor cell line is measured as a screen for anti-cancer activity. Cells are grown in 96 well plates and exposed to the test compound for 48 hours. Compounds are tested at a single concentration, which is 10^-5 M for most compounds. The reported endpoint is percent growth (GI% or GIPRCNT), where numbers from 0 - 100% represent growth inhibition, and numbers from -100% - 0 represent cell death. For example, a value of 40 represents 60% growth inhibition. […]
Compounds without any hit were thinned out: in the full panel of roughly 83,000, 20% have a hit.
experimental.endpoint: growth (%)

| molecule | experimental.endpoint | endpoint.unit | measured.result |
| --- | --- | --- | --- |
| O=C(Nc1ccc(Oc2cccc(Cl)c2)c(Cl)c1)c1cccnn1 | growth | % | 80.1 |
| COc1cc(/C=C/C(=O)c2cc(OC)c(OC)c(OC)c2)ccc1Oc1nc2c(c(=O)n(C)c(=O)n2C)n1C | growth | % | 2.13 |
| CC(C)(Sc1cc(C(C)(C)C)c(O)c(C(C)(C)C)c1)Sc1cc(C(C)(C)C)c(OC(=O)CCC(=O)O)c(C(C)(C)C)c1 | growth | % | 73.3 |
| Cc1ccc(OCCOCCOCCOc2ccc(C)n(O)c2=S)c(=S)n1O | growth | % | 10.7 |
| N#Cc1c(-c2ccccc2)nc2c(c(-c3ccccc3)nn2-c2ccccc2)c1-c1ccc(N2CCCCC2)cc1 | growth | % | 95.5 |
| FC(F)(F)c1[nH]ncc1-c1nc2ccc3[nH]ncc3c2c2c1CCCC2 | growth | % | -30 |
| CCN(CC)CCOc1ccc(C(=O)/C=C\c2ccc(Cl)cc2Cl)cc1 | growth | % | -13.1 |
| Cc1ccc(S(=O)(=O)OCC#CCOS(=O)(=O)c2ccc(C)cc2)cc1 | growth | % | 46.3 |
| O=C(NCCCCO)c1cncnc1Nc1ccc2c(ccn2Cc2cccc(F)c2)c1 | growth | % | 88.3 |
| Nc1nc(N(Cc2ccccc2)c2ccccc2)c2cn[nH]c2n1 | growth | % | 62.2 |
| COc1ccc(Nc2ncc(C#N)c(NCCCNC(=O)C3CCC3)n2)cc1 | growth | % | 34.7 |
| CCCN(CCSSCCNc1nc(N(C)O)nc(N(C)O)n1)c1nc(N(C)O)nc(N(C)O)n1 | growth | % | 47.3 |
| O=C(Nc1ccccc1O)c1ccc(CNc2ccnc(C(F)(F)F)c2)cc1 | growth | % | 9.24 |
| CCCCNC(=O)c1ccc2c(c1)nc(-c1ccccc1)n2C1CCCCC1 | growth | % | 94.6 |
| COc1ccc(C2[C@@H](c3ccccc3)C(=O)N2c2cc(OC)c(OC)c(OC)c2)cc1F (stereo partly specified) | growth | % | 5.7 |
| Cc1ccc(O)c(NC(=O)c2cccc(Nc3ccnc(C(F)(F)F)c3)c2)c1 | growth | % | -4.89 |
| Cc1[nH]n(-c2cccc(Cl)c2)c(=O)c1/C=C1\C=c2ccccc2=CC1=O | growth | % | 44.2 |
| O=S(=O)(Nc1cc(F)cc(F)c1)c1ccc(-c2cnc(C3CC3)o2)cc1 | growth | % | 39.1 |
| Nc1ncnc2c1N=C(c1ccc(F)cc1)CC(c1cccc(Nc3ccnc4cc(Cl)ccc34)c1)N2 (stereo unspecified) | growth | % | 39.6 |
| CCN(CC)CCOc1ccc2ccc(=O)oc2c1 | growth | % | 4.48 |
| COC(=O)c1ccc2c(c1)c1c(C)c3cnccc3c(C)c1n2C | growth | % | 2.75 |
| CCCOC(=O)Nc1nc2ccc(SCC)cc2s1 | growth | % | 72.9 |
| COc1ccc(C2CC(c3ccccc3)=NN2C(=O)c2cc(OC)c(OC)c(OC)c2)cc1O (stereo unspecified) | growth | % | 18.9 |
| Cc1nc2sc(C(=O)Nc3cccc4ccccc34)c(N)c2cc1C(=O)c1ccccc1 | growth | % | 21.4 |
| O=S(=O)(Nc1cc(Sc2nc3ccccc3s2)c(O)c2ccccc12)c1ccc2ccccc2c1 | growth | % | 59.1 |
| Cn1cc(-c2csc(-c3cn(C)c4ccccc34)n2)c2cnccc21 | growth | % | 5.42 |
| COC(=O)Cn1c2c(c3c(OC)cccc31)C(=O)c1ccccc1-2 | growth | % | 83.8 |
| Fc1cccc(CNc2c3ccccc3nc3ccccc23)c1 | growth | % | 14.9 |
| COc1cc(Cc2cc(OC)c(O)c(OC)c2)cc(OC)c1O | growth | % | 74.9 |
| CCCC(O)Cn1ncc(C(=O)OCC)c1NC(=O)NCc1cccc(C(F)(F)F)c1 (stereo unspecified) | growth | % | 62 |
| O=S(Nc1ccccc1)c1ccc(Cl)cc1 (stereo unspecified) | growth | % | 85.7 |
| CN(C)CCCn1c2c(c3ccncc3c1=O)C(=O)c1ccccc1-2 | growth | % | -15 |
| COc1cc(Cc2cc(-c3ccccc3)nn(Cc3ccccc3)c2=O)cc(OC)c1OC | growth | % | 5.01 |
| CC(C)(C)OC(=O)CN1CCc2c(sc3ncnc(N4CCN(c5ccc(F)cc5)CC4)c23)C1 | growth | % | 53.4 |
| CCOC(=O)/C=C1\S/C(=N\Nc2cc(=O)[nH]c3ccc(Br)cc23)N(c2ccccc2)C1=O | growth | % | 21.4 |
| COc1ccc(Cl)cc1Nc1nc(C(F)(F)F)ccc1C(=O)N/N=C/c1ccc([N+](=O)[O-])cc1 | growth | % | 2.93 |
| O=C(NNc1nc2cc(F)ccc2n2c(CN3CCOCC3)ccc12)c1ccccc1 | growth | % | 2.3 |
| O=C(CCCCCCCC(=O)N1CCCCC1)N1CCCCC1 | growth | % | 126 |
| CCOC(=O)C1=C(CC(O)c2ccc(OC)cc2OC)NC(=O)NC1c1ccccc1 (stereo unspecified) | growth | % | 17.2 |
| O=C(N/N=C/c1ccc(Cl)cc1)c1ccc(NC(=O)c2ccccn2)cc1 | growth | % | 79.5 |
| C=C1C(=O)O[C@H]2[C@H]1CC/C(COC(=O)NCc1ccc(Cn3c(=O)sn(-c4ccccc4)c3=O)cc1)=C\CC[C@@]1(C)O[C@@H]21 | growth | % | -5.87 |
